# heart rate at 72 hpf per record follows
# System: Danio rerio embryo (fli1:egfp)
# protocolText: heart rate at 72 hpf (beats per minute); higher = faster heart rate
# conditionLabel: 1.56 µM; exposure: 5-72 hpf
Just the number, please.

Recorded heart rate at 72 hpf, per entry:
[
  {
    "compound": "COC(=O)N(C(=O)N1CO[C@@]2(C(=O)OC)Cc3cc(Cl)ccc3C2=N1)c1ccc(OC(F)(F)F)cc1",
    "targetEntity": "Danio rerio embryo (fli1:egfp)",
    "heart rate at 72 hpf": 181
  },
  {
    "compound": "CCCCSP(=O)(SCCCC)SCCCC",
    "targetEntity": "Danio rerio embryo (fli1:egfp)",
    "heart rate at 72 hpf": 164
  },
  {
    "compound": "CCOc1cc(Oc2ccc(C(F)(F)F)cc2Cl)ccc1[N+](=O)[O-]",
    "targetEntity": "Danio rerio embryo (fli1:egfp)",
    "heart rate at 72 hpf": 190
  },
  {
    "compound": "CC1(C)C(C(=O)OC(C#N)c2cccc(Oc3ccccc3)c2)C1(C)C (stereo not given)",
    "targetEntity": "Danio rerio embryo (fli1:egfp)",
    "heart rate at 72 hpf": 188
  }
]

Now for a further compound.
C#CCOC(=O)[C@@H](C)Oc1ccc(Oc2ncc(Cl)cc2F)cc1 has a reported heart rate at 72 hpf of 190

Origin of measurements: the supplement of paper PMC4121296
